Entry source: ChEMBL document CHEMBL4811252

- experimental target: Histone deacetylase 1 (Homo sapiens, UniProt Q13547)
- Sequence (Q13547 whole entry): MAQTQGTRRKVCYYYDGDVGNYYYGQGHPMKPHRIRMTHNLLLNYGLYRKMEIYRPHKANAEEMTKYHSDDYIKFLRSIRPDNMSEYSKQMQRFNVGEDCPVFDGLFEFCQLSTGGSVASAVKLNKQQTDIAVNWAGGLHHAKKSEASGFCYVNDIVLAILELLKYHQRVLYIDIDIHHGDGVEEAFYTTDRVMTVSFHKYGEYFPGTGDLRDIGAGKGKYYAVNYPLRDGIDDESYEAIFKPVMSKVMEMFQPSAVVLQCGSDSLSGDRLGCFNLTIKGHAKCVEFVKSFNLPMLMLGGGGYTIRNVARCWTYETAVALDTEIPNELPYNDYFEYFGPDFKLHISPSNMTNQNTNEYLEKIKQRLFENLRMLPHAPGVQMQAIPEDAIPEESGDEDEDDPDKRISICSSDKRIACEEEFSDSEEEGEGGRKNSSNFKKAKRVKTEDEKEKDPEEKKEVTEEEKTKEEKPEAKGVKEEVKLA
- protocol: Inhibition of recombinant human HDAC1 using Z-(Ac)-Lys-AMC as substrate incubated for 40 mins by fluorescence based assay
readout: IC50 (µM)
Could you give me the number in µM? Just the number is fine.

Here are 4 compounds together with their reported answers.
{"chemical string": "Cc1ccc(-c2nc(CNc3ccc(C(=O)NO)cc3)n(-c3ccccc3)n2)cc1", "IC50, µM": 3.1}
{"chemical string": "O=C(NO)c1ccc(NCc2nc(-c3ccccc3Cl)nn2-c2ccccc2)cc1", "IC50, µM": 3.83}
{"chemical string": "Cc1ccc(-c2nc(CNc3ccc(C(=O)NO)cc3)n(-c3ccccc3)n2)s1", "IC50, µM": 3.94}
{"chemical string": "Cc1cccc(-n2nc(-c3ccccc3)nc2CNc2ccc(C(=O)NO)cc2)c1", "IC50, µM": 3.85}

Exercise: Kindly state the measured IC50 obtained for O=C(NO)c1ccc(NCc2nc(-c3ccc(F)cc3)nn2-c2ccccc2)cc1 with Histone deacetylase 1 (Homo sapiens, UniProt Q13547).
Solution: 3.4

* * *

- experimental target: Protein deacetylase HDAC6 (Homo sapiens) (UniProt Q9UBN7)
- Sequence (Q9UBN7 whole entry): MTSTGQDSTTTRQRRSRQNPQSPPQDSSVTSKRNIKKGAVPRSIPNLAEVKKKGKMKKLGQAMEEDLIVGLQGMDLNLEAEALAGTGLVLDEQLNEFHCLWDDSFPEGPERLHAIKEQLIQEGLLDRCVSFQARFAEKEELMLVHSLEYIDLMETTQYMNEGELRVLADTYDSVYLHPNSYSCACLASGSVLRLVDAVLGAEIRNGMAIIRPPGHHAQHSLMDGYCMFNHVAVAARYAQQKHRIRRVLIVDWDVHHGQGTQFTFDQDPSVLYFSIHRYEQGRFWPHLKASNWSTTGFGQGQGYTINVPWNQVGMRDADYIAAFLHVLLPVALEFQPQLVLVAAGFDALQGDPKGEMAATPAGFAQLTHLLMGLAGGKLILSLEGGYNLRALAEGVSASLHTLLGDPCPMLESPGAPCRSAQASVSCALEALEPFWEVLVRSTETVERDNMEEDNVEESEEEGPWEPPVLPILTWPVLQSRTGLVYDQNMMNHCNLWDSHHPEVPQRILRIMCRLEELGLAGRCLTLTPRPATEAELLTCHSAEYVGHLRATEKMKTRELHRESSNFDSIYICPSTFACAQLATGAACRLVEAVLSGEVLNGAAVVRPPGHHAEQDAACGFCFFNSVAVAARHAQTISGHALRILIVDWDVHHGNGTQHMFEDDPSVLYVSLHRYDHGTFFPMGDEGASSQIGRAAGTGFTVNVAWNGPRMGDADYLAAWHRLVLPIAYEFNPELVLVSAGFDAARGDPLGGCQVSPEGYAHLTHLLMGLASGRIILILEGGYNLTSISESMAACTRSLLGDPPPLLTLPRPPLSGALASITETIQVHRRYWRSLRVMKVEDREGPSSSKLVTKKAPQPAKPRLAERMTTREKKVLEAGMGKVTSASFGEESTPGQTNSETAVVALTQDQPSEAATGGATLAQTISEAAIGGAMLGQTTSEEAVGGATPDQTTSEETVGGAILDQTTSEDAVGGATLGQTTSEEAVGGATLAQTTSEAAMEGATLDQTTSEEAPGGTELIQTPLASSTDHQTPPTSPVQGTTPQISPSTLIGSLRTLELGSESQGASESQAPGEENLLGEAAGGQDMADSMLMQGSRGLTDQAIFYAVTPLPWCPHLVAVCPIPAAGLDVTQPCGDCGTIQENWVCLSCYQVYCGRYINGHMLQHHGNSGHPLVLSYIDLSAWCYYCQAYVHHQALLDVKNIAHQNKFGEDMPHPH
- recorded conditions: Sf9, dose 100.0 nM, time 40.0 min
readout: inhibition (%)
Could you give me the number in %? Just the number is fine.

Here are 5 compounds together with their reported answers.
{"chemical string": "Cc1ccc(-c2nc(CNc3ccc(C(=O)NO)cc3)n(-c3ccccc3)n2)cc1", "experimental target": "Protein deacetylase HDAC6 (Homo sapiens) (UniProt Q9UBN7)", "inhibition [%]": 62.2}
{"chemical string": "CC(C)c1ccc(-c2nc(CNc3ccc(C(=O)NO)cc3)n(-c3ccccc3)n2)cc1", "experimental target": "Protein deacetylase HDAC6 (Homo sapiens) (UniProt Q9UBN7)", "inhibition [%]": 27.6}
{"chemical string": "Cc1ccsc1-c1nc(CNc2ccc(C(=O)NO)cc2)n(-c2ccccc2)n1", "experimental target": "Protein deacetylase HDAC6 (Homo sapiens) (UniProt Q9UBN7)", "inhibition [%]": 72.1}
{"chemical string": "O=C(NO)c1ccc(NCc2nc(-c3cc4ccccc4s3)nn2-c2ccccc2)cc1", "experimental target": "Protein deacetylase HDAC6 (Homo sapiens) (UniProt Q9UBN7)", "inhibition [%]": 65.5}
{"chemical string": "O=C(NO)c1ccc(NCc2nc(-c3ccccc3Cl)nn2-c2ccccc2)cc1", "experimental target": "Protein deacetylase HDAC6 (Homo sapiens) (UniProt Q9UBN7)", "inhibition [%]": 75}

Exercise: What value of inhibition has been reported for the following compound? O=C(NO)c1ccc(NCc2nc(-c3ccccc3)nn2-c2ccc(F)cc2)cc1
Solution: 67.6

Exercise: What value of inhibition has been reported for the following compound? O=C(NO)c1ccc(NCc2nc(-c3cccc4cnccc34)nn2-c2ccccc2)cc1
Solution: 40.2

Exercise: What value of inhibition has been reported for the following compound? O=C(NO)c1ccc(NCc2nc(-c3ccccn3)nn2-c2ccccc2)cc1
Solution: 58.6

* * *

- experimental target: Histone deacetylase 1 (Homo sapiens, UniProt Q13547)
- recorded conditions: dose 100.0 nM, time 40.0 min
Measured inhibition of individual entries
Could you give me the number in %? Just the number is fine.

Here are 5 compounds together with their reported answers.
{"chemical string": "COc1ccc(-n2nc(-c3ccccc3)nc2CNc2ccc(C(=O)NO)cc2)cc1", "unit of measure": "%", "test result": 26.2}
{"chemical string": "O=C(NO)c1ccc(NCc2nc(-c3cccc4cnccc34)nn2-c2ccccc2)cc1", "unit of measure": "%", "test result": 11.2}
{"chemical string": "O=C(O)c1ccc(NCc2nc(-c3ccccc3)nn2-c2ccccc2)cc1", "unit of measure": "%", "test result": 2.1}
{"chemical string": "Cc1cccc(-n2nc(-c3ccccc3)nc2CNc2ccc(C(=O)NO)cc2)c1", "unit of measure": "%", "test result": 18.4}
{"chemical string": "O=C(NO)c1ccc(NCc2nc(-c3ccco3)nn2-c2ccccc2)cc1", "unit of measure": "%", "test result": 16.7}

Exercise: What value of inhibition has been reported for the following compound? Cc1ccc(-c2nc(CNc3ccc(C(=O)NO)cc3)n(-c3ccccc3)n2)o1
Solution: 22.3

Exercise: What value of inhibition has been reported for the following compound? O=C(NO)c1ccc(NCc2nc(-c3ccccn3)nn2-c2ccccc2)cc1
Solution: 16

Exercise: What value of inhibition has been reported for the following compound? O=C(NO)c1ccc(NCc2nc(-c3ccsc3)nn2-c2ccccc2)cc1
Solution: 15.2

Exercise: What value of inhibition has been reported for the following compound? Cc1ccc(-n2nc(-c3ccccc3)nc2CNc2ccc(C(=O)NO)cc2)cc1C
Solution: 11
